Data origin: the supplement of paper PMC6555819

# Tested on: VDR homodimer (NR concentration 270 nM)
# ASSAY OVERVIEW: PBM binding z-score (relative to random genomic background probes); higher = stronger binding; sequences stand for … in GC…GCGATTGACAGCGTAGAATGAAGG
Give PBM binding z-score for every item shown.
The response must contain the number and no unit.

Request: Please report the measured PBM binding z-score for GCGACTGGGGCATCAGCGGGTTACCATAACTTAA
Result: -0.158

Request: Please report the measured PBM binding z-score for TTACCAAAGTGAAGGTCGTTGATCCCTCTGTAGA
Result: 0.739

Request: Please report the measured PBM binding z-score for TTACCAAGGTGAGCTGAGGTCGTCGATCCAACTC
Result: 1.02
